Hi there, I'd appreciate the recorded Ki for every entry that follows.
# target desc: H3 receptors (Cavia porcellus, UniProt Q9JI35)
# Construct: The source of the H3 receptors in this experiment was guinea pig brain; from tissue; host or cells: guinea pig brain membranes
# Sequence (Q9JI35 whole entry): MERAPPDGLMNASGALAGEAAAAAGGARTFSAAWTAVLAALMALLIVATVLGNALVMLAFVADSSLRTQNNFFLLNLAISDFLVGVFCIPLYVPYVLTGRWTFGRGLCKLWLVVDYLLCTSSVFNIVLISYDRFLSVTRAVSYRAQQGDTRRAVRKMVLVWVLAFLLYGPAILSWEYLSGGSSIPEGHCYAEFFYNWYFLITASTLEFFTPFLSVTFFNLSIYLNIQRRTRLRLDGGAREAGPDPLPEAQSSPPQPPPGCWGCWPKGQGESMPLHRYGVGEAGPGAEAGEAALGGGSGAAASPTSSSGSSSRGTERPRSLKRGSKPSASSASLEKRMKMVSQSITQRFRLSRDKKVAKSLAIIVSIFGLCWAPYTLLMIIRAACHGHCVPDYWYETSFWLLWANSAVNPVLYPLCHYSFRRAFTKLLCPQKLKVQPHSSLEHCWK
# measurement description: H3-Receptor Binding Assay (guinea pig brain membranes, [3H]R-a-methylhistamine or [3H]Na-methylhistamine)
Please answer using the number first and the unit second.

Worked examples, 5 compounds total:
| compound | Ki |
| --- | --- |
| O=C(Nc1cccc(F)c1)OCc1ccc(Cc2c[nH]cn2)cc1 [Compound 19] | 5 nM |
| O=C(CCc1ccc(Cc2c[nH]cn2)cc1)Nc1cccc(Cl)c1 [Compound 22] | 1 nM |
| O=C(CCc1ccc(Cc2c[nH]cn2)cc1)Nc1ccccc1 [Compound 21] | 2 nM |
| O=C(NCc1ccc(Cc2c[nH]cn2)cc1)Nc1cc(Cl)cc(Cl)c1 [Compound 8] | 12 nM |
| O=C(CCc1ccc(Cc2c[nH]cn2)cc1)NCCc1ccc(Cl)cc1 [Compound 24] | 5 nM |

The following compounds each have a reported value; give each one's Ki.
1. O=C(Nc1cccc(C(F)(F)F)c1)OCc1ccc(Cc2c[nH]cn2)cc1 [Compound 12]
2. N#Cc1cccc(NC(=O)OCc2ccc(Cc3c[nH]cn3)cc2)c1 [Compound 15]

1. 21 nM
2. 7 nM

For every item in the list below, what is its measured Ki?
1. COc1cccc(NC(=O)OCc2ccc(Cc3c[nH]cn3)cc2)c1 [Compound 17]
2. Cc1cc(C)cc(NC(=O)OCc2ccc(Cc3c[nH]cn3)cc2)c1 [Compound 14]

1. 13 nM
2. 17 nM

* * *

# target desc: H3 receptors (Cavia porcellus, UniProt Q9JI35)
# Construct: The source of the H3 receptors in this experiment was guinea pig brain; from tissue; host or cells: guinea pig brain membranes
# measurement description: H3-Receptor Binding Assay (guinea pig brain membranes, [3H]R-a-methylhistamine or [3H]Na-methylhistamine)
# experimental context: HCl salt of the indicated compound; guinea pig brain membranes; 3 nM [3H]R-a-methylhistamine or 3 nM [3H]Na-methylhistamine, pH 7.5, 30° C., 30 min; read-out: Ki
quantity kind: Ki (nM)
Give bare numbers, in nM.

Illustrative cases are given below, each with its answer.
| compound | quantity kind | quantitative readout |
| --- | --- | --- |
| O=C(NCc1ccc(Cc2c[nH]cn2)cc1)Nc1cccc(C(F)(F)F)c1 | Ki | 16 |
| O=C(NCc1ccc(Cc2c[nH]cn2)cc1)Nc1ccc(Cl)c(Cl)c1 | Ki | 7 |
| O=C(NCc1ccc(Cc2c[nH]cn2)cc1)Nc1ccccc1Cl | Ki | 32 |
| Cc1cc(C)cc(NC(=O)NCc2ccc(Cc3c[nH]cn3)cc2)c1 | Ki | 9 |
| O=C(NCc1ccc(Cc2c[nH]cn2)cc1)Nc1cc(C(F)(F)F)cc(C(F)(F)F)c1 | Ki | 22 |
| O=C(Nc1cc(C(F)(F)F)cc(C(F)(F)F)c1)OCc1ccc(Cc2c[nH]cn2)cc1 | Ki | 23 |
| COc1cccc(NC(=O)NCc2ccc(Cc3c[nH]cn3)cc2)c1 | Ki | 18 |
| O=C(Nc1ccc(Cl)c(Cl)c1)OCc1ccc(Cc2c[nH]cn2)cc1 | Ki | 18 |

Now for another entry.
Under H3 receptors (Cavia porcellus, UniProt Q9JI35): Ki value of "N#Cc1cccc(NC(=O)NCc2ccc(Cc3c[nH]cn3)cc2)c1" ?
5
